- assayTarget: furin, P09958;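 further: purified furin at 1:10 enzyme:substrate in 50 mM HEPES pH 7.5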
- Sequence (P09958 whole entry): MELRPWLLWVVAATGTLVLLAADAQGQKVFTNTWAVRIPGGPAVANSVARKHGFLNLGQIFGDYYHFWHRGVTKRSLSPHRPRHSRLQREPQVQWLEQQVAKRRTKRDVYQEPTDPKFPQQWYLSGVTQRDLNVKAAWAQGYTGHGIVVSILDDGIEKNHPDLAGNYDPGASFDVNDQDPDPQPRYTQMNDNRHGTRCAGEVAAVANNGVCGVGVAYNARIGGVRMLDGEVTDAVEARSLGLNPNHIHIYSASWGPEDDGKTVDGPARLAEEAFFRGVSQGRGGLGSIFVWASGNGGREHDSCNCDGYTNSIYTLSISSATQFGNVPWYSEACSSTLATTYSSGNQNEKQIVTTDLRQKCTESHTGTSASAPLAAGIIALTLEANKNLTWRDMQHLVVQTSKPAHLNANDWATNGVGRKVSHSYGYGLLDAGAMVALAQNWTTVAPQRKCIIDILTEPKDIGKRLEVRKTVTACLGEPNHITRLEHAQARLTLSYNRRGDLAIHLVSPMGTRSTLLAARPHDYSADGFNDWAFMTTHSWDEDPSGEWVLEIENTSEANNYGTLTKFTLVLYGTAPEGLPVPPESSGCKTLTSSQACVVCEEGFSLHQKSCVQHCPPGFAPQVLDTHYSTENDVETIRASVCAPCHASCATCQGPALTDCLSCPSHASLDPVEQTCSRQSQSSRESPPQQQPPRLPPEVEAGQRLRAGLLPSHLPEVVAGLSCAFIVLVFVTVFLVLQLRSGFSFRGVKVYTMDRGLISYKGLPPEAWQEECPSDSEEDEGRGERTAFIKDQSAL
- assayRemarks: furin cleavage Z-score vs untreated control; higher = more cleavage, active = 3.5 or more, inactive = 1 or less, 8 variable residues between constant flanks
- measurementConditions: 7.5 min
Some of the results follow. How many sequences the whole screen found active is unknown.
endpointLabel: furin cleavage Z-score
Give bare numbers.

Example entries begin here.
CATHINSVWKAGNASASA [HC1429]; -0.832
CAAVRRLVGNAGNASASA [FS-1667]; -1.38
CALPIRRKRSAGNASASA [FS-1028]; 13

# batch: return furin cleavage Z-score for each of the 3 sequences below
1. CAAYAQQTRGAGNASASA [HC676]
2. CAEHVVCCSMAGNASASA [HC2135]
3. CAFLEVVTSTAGNASASA [HC2267]

[0.0125, 0.471, -1.17]
